All figures here come from ChEMBL document CHEMBL2176890.

- Test Target: Transient receptor potential cation channel subfamily V member 1 (Homo sapiens)
- Sequence (Q8NER1 whole entry): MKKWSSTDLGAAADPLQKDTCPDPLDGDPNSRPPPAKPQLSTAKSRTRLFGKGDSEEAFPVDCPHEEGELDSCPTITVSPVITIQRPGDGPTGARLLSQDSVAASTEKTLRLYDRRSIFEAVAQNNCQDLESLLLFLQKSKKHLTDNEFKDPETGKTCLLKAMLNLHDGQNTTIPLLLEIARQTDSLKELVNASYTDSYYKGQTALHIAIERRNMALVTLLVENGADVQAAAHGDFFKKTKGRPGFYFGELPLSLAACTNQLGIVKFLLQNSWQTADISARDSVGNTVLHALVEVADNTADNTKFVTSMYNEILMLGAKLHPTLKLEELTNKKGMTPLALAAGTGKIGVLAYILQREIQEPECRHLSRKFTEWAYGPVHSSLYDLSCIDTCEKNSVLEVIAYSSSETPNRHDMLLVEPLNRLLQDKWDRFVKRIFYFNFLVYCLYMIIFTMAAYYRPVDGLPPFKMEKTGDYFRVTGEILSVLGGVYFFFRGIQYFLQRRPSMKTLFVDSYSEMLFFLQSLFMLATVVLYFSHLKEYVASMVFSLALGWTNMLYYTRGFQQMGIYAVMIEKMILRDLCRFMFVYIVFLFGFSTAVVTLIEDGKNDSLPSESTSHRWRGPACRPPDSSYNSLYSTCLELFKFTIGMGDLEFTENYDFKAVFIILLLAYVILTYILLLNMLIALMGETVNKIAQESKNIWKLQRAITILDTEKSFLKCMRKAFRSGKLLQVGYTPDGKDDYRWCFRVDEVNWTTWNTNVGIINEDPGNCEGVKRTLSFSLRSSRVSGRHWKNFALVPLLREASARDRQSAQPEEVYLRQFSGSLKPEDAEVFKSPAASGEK
- Experimental Protocol: Antagonist activity at human TRPV1 expressed in CHOK1 cells assessed as inhibition of capsaicin-induced activity by FLIPR assay
- Format: functional, cell-based, CHO-K1
- Conditions Used: read-out: Ki
Kindly state pKi for each of the entries shown.
Give bare numbers, as −log10 of the molar value.

Take a look at these entries with their results.
[[record]]
molecule = "CC(C(=O)NCc1ccc(C(F)(F)F)nc1N1CCC(CN(C)C)CC1)c1ccc(NS(C)(=O)=O)c(F)c1 (racemic)"
value_observed = 8.68

[[record]]
molecule = "CC1CCN(c2nc(C(F)(F)F)ccc2CNC(=O)[C@@H](C)c2ccc(NS(C)(=O)=O)c(F)c2)CC1"
value_observed = 9.70

[[record]]
molecule = "CC(C(=O)NCc1ccc(C(F)(F)F)nc1N1CCC(Cc2ccc(F)c(F)c2)CC1)c1ccc(NS(C)(=O)=O)c(F)c1 (racemic)"
value_observed = 9.70

[[record]]
molecule = "CC1CCCN1c1nc(C(F)(F)F)ccc1CNC(=O)[C@@H](C)c1ccc(NS(C)(=O)=O)c(F)c1 (some centres not stated)"
value_observed = 9.52

[[record]]
molecule = "CC(C(=O)NCc1ccc(C(F)(F)F)nc1N1CCN(c2ccc(C(F)(F)F)cc2)CC1)c1ccc(NS(C)(=O)=O)c(F)c1 (racemic)"
value_observed = 8.64


Hi! Can you tell me pKi for each of these molecules?
1. O=C(/C=C/c1ccc(C(F)(F)F)nc1N1CCCCC1)Nc1ccc2cccnc2c1
2. Cc1ccc(CC2CCN(c3nc(C(F)(F)F)ccc3CNC(=O)C(C)c3ccc(NS(C)(=O)=O)c(F)c3)CC2)cc1 (racemic)

stdout:
1. 8.36
2. 9.70

----------
- Test Target: Transient receptor potential cation channel subfamily V member 1 (Homo sapiens)
- Experimental Protocol: Antagonist activity at human TRPV1 expressed in CHOK1 cells assessed as inhibition of capsaicin-induced activity by FLIPR assay
- Type: functional, cell-based, CHO-K1
- Conditions Used: read-out: Ki
Response field label takes class 1 when Ki is strictly below 7 nM and class 0 in all other cases.

The examples below pair each entry with its known result.
[[record]]
compound = "CC1CCC(Nc2nc(C(F)(F)F)ccc2CNC(=O)C(C)c2ccc(NS(C)(=O)=O)c(F)c2)CC1 (racemic)"
assigned_label = "class 0"

[[record]]
compound = "CC(C(=O)NCc1ccc(C(F)(F)F)nc1N1CCC(Cc2cc(F)cc(F)c2)CC1)c1ccc(NS(C)(=O)=O)c(F)c1 (racemic)"
assigned_label = "class 1"

[[record]]
compound = "O=C(/C=C/c1ccc(C(F)(F)F)nc1N1CCOCC1)Nc1ccc2cccnc2c1"
assigned_label = "class 1"

[[record]]
compound = "CC(C)(C)c1ccc(CNC(=S)NCc2ccc(NS(C)(=O)=O)c(F)c2)cc1"
assigned_label = "class 0"

[[record]]
compound = "C[C@H](C(=O)NCc1ccc(C(F)(F)F)nc1N1CC[C@@H](NC(=O)OC(C)(C)C)C1)c1ccc(NS(C)(=O)=O)c(F)c1"
assigned_label = "class 0"

[[record]]
compound = "CC(C(=O)NCc1ccc(C(F)(F)F)nc1N1CCCCC1)c1ccc(NS(C)(=O)=O)c(F)c1 (racemic)"
assigned_label = "class 1"


We next turn to a different compound, shown below.
stdin: Input C[C@H](C(=O)NCc1ccc(C(F)(F)F)nc1N1CC[C@H](N(C)C)C1)c1ccc(NS(C)(=O)=O)c(F)c1 ; condition: Ki strictly below 7 nM. Does it hold?
stdout: class 0
